Test system: TK-10 renal
Assay Protocol: NCI-60 one-dose screen, 48 h (100 = growth as untreated, 0 = no growth, -100 = all killed)
Run Parameters: 10 µM
About 83,000 compounds went through this panel and 20% of them were active in at least one assay; those are over-represented in the sample as a whole. The source made the active and inactive calls. How the source made its calls: active means growth percent below 10; inactive means the rest.
Assign growth to each entry below.

Query block: Reported growth for TK-10 renal, given O=C(Nc1ccccc1)Nc1nc2ccccc2s1 ?
Result block: 95.4% (inactive)

Query block: Cc1ccc(-c2ccc(SCC(=O)Nc3ccc(S(N)(=O)=O)cc3Br)nn2)cc1 ?
Result block: 84.7% (inactive)

Query block: CC1=N/C(=C\c2ccc(N(C)C)cc2)C(=O)N1CCc1ccc(S(N)(=O)=O)cc1 ?
Result block: 110% (inactive)

Query block: O=C(c1ccc(Cl)cc1)C1[C@H](c2ccc(Br)cc2)[C@@H](c2ccccc2)NC12C(=O)Nc1ccc(Br)cc12 (some centres undefined) ?
Result block: -78.7% (active)

Query block: CC(=O)Nc1ccc(-c2cn(-c3cccc(C(=O)Nc4cccc(OC(F)(F)F)c4)c3)nn2)cn1 ?
Result block: 111% (inactive)

Query block: Cc1ccc(CSc2nc(-c3ccc(F)cc3)c(C#N)c(=O)[nH]2)cc1 ?
Result block: 93.5% (inactive)

Query block: CCCn1c(=O)c2[nH]c(-c3ccc(OCc4nc5ccccc5[nH]4)cc3)nc2n(CCC)c1=O ?
Result block: 17.4% (inactive)

Query block: N[C@@H](CSSC[C@H](N)C(=O)Nc1ccc(OCC2CCCC2)cc1)C(=O)Nc1ccc(OCC2CCCC2)cc1 ?
Result block: -95.5% (active)

Query block: CCCn1c(=O)c2[nH]c(-c3ccc(OCc4nc5ccc(C(F)(F)F)cc5[nH]4)cc3)nc2n(CCC)c1=O ?
Result block: 96.2% (inactive)

====

System: SN12C renal
Assay Protocol: NCI-60 one-dose screen, 48 h (100 = growth as untreated, 0 = no growth, -100 = all killed)
Run Parameters: 10 µM
The panel holds about 83,000 compounds, 20% with a hit somewhere; the sample as a whole holds those more often.
Measure Name: growth (%)
Please state the figure in %; there is no need to write the unit.

Query block: Requested read-out: growth. Entry: CC(C)(C)Nc1nc2cc(Cl)c(Cl)cc2nc1S(C)(=O)=O
Result block: 20.1

Query block: COc1ccc(C(=O)Nc2ccc(-c3ccc4c(c3)NC(=O)/C4=C\c3ccc[nH]3)cc2)cc1 ?
Result block: 64.9

Query block: CCOC(=O)C1=C(N)N(c2ccc(C)cc2)C2=C(C(=O)CC(C)(C)C2)C1c1ccccc1OC (stereo unspecified) ?
Result block: 99.6

Query block: CO[C@@H]1CSSC1Cn1nc(-c2ccc(Oc3ccccc3)cc2)c2c(N)ncnc21 (stereo partly specified) ?
Result block: 60.6

Query block: CO[C@@H]1CSS[C@H]1Cn1nc(-c2ccc(Oc3ccccc3)cc2)c2c(N)ncnc21 ?
Result block: 73.9

Query block: CN1CCN(c2ccc(Nc3nc(NCCCNC(=O)c4ccc(Cl)cc4)c4sccc4n3)cc2)CC1 ?
Result block: 74.5

Query block: COc1ccc(-c2nc(S(=O)(=O)c3ccc(C)cc3)c(S(C)(=O)=O)o2)cc1 ?
Result block: -73.3

Query block: O=C(N/C(=C1/OCCN1Cc1ccccc1)[P+](c1ccccc1)(c1ccccc1)c1ccccc1)c1ccccc1 ?
Result block: 7.37

Query block: CN1CCN(Cc2ccc(NC(=O)c3cncc(C#Cc4cnc5ccc(N[C@H]6CCOC6)nn45)c3)cc2C(F)(F)F)CC1 ?
Result block: -93.1

Query block: CC(=O)Nc1nc(-c2ccc(N3CCN(C)CC3)c(NS(=O)(=O)c3cccc4c(N(C)C)cccc34)c2)cs1 ?
Result block: 75.6

Query block: COc1cccc(-c2ccc(/C=N/NC(=O)c3[nH]c4ccc(Br)cc4c3-c3ccccc3)o2)c1 ?
Result block: 5.67

Query block: O=C(CNc1nc(-c2ccccc2)cs1)Nc1cccc(Cl)c1 ?
Result block: 41.4

Query block: COc1cccc(COc2ccc(/C=C3\Oc4cc(O)ccc4C3=O)cc2)c1 ?
Result block: 66.1

Query block: COc1ccc(CN2[C@H](C(=O)NCc3ccc(C(=O)NO)cc3)Cc3c([nH]c4ccccc34)[C@H]2C2CC2)cc1 ?
Result block: 70.5

Query block: CCOC(=O)C1=C(N)N(c2ccc(Cl)cc2)C2=C(C(=O)CC(C)(C)C2)C1c1ccc(N2CCOCC2)cc1 (stereo unspecified) ?
Result block: 97.7

Query block: COc1cc(-c2nc3cc(Cl)c(Cl)cc3[nH]2)ccc1OCc1nnc(-c2ccc(Br)cc2)o1 ?
Result block: -39.2

Query block: CC(=O)Nc1ccc(-c2cn(-c3cccc(C(=O)Nc4cc(C(F)(F)F)cc(C(F)(F)F)c4)c3)nn2)cn1 ?
Result block: -50.1

Query block: COc1ccsc1/C=N/NC(=O)c1[nH]c2ccc(Br)cc2c1-c1ccccc1 ?
Result block: -3.76

Query block: CCOC(=O)c1sc(N/N=C(\C)c2ccc3c(c2)Nc2ccccc2S3)nc1C ?
Result block: 51.3

Query block: O=C1NC(=NC23CC4CC(CC(C4)C2)C3)N/C1=C\c1ccc2ncccc2n1 ?
Result block: 1.63

Query block: COc1ccc2[nH]c(O)c(N=NC(=O)COc3ccc(NC(=O)Nc4ccc(Cl)cc4)cc3)c2c1 ?
Result block: 15.9

Query block: O=c1c2ccccc2nc(COc2ccccc2)n1/N=C/c1ccc(N2CCOCC2)cc1 ?
Result block: 68

Query block: COc1ccc2[nH]c(=O)c(CSc3nccc(-c4ccc(Cl)cc4)n3)cc2c1 ?
Result block: 34.4

Query block: Cc1ccc(-c2cc(-c3cc4ccccc4nc3Cl)[nH]c(=S)n2)cc1 ?
Result block: 63.8

Query block: COc1ccc2c(c1)N=C(C(=O)O)/C2=C/c1sc(Nc2ccc(O)cc2)nc1O ?
Result block: 80.9

Query block: O=[N+]([O-])c1ccc(-c2nc(-c3ccccc3)c(-c3ccccc3)n2-c2ccc(S(=O)(=O)Nc3ncccn3)cc2)cc1 ?
Result block: 38.9

Query block: COc1cnc2c(c1)C(=O)c1c-2n(CCCNCCO)c(=O)c2cc(OC)c(OC)cc12 ?
Result block: 18.4

Query block: Cc1ccc(CSc2nc(-c3ccc(F)cc3)c(C#N)c(=O)[nH]2)cc1 ?
Result block: 102

Query block: Nc1cc(-c2cccc(C(=O)NCc3ccc4c(c3)OCO4)c2)ccn1 ?
Result block: 104

Query block: COc1cc(/C=C/C(=O)c2ccc(C(F)(F)F)cc2)ccc1Oc1nc(Nc2ccc(F)cc2)nc(N(C)C)n1 ?
Result block: 69.6

Query block: CN(C(=O)c1ccc(C(C)(C)C)cc1)c1sc2c(c1C#N)CCC(=O)C2 ?
Result block: 17.1

Query block: COC(=O)CC1CC1C1Cc2c(nc(N(C)S(C)(=O)=O)nc2C(C)C)-c2ccc(F)cc21 (stereo unspecified) ?
Result block: 94.9

Query block: CC1(C)CC[C@]2(C(=O)O)CC[C@]3(C)C(=CC[C@@H]4[C@@]5(C)C/C(=C/c6ccncc6)[C@H](O)C(C)(C)[C@@H]5CC[C@]43C)[C@@H]2C1 ?
Result block: 55

Query block: O=c1c2ccccc2nc(COc2ccccc2)n1/N=C/c1ccc(F)cc1 ?
Result block: 86.5

Query block: NS(=O)(=O)c1ccc(NC(=O)CSc2ccc(-c3ccc(Cl)cc3)nn2)c(Br)c1 ?
Result block: 39.1

Query block: CN1C(=O)/C(=C/c2ccc3ncsc3c2)NC1=NC12CC3CC(CC(O)(C3)C1)C2 ?
Result block: 4.63

====

Assign growth to each entry below.
Tested on: MCF7 breast
Assay Protocol: NCI-60 one-dose screen, 48 h (100 = growth as untreated, 0 = no growth, -100 = all killed)
Run Parameters: 10 µM
The panel holds about 83,000 compounds, 20% with a hit somewhere; the sample as a whole holds those more often.
Please state the figure in %; there is no need to write the unit.

Query block: Requested read-out: growth. Entry: Cc1cccc(-c2nc(Nc3ccccc3C(=O)O)c3ccccc3n2)c1
Result block: 24

Query block: Cc1ccc(/C(CSc2nnc(-c3c[nH]c4ccccc34)n2-c2ccccc2)=N/O)cc1 ?
Result block: -55

Query block: COc1ccc2ncc(C#Cc3cncc(C(=O)Nc4ccc(CN5CCN(C)CC5)c(C(F)(F)F)c4)c3)n2n1 ?
Result block: -71.7

Query block: Cc1ccc(/C=C/C(=O)c2ccc(NC(=O)CSc3nnc(-c4c[nH]c5ccccc45)n3-c3ccccc3)cc2)c(C)c1 ?
Result block: 3.33

Query block: COc1ccc2[nH]c(=O)c(CSc3ccc(Nc4nccc(-c5ccc(Cl)cc5)n4)cc3)cc2c1 ?
Result block: 84.5

Query block: COc1ccc(N(C)c2cc(C#N)nc3ccccc23)cc1/C=C/C(=O)NO ?
Result block: -20.8

Query block: O=C(NCCCCC(c1ccc(F)cc1)c1ccc(F)cc1)NCCCc1cccnc1 ?
Result block: 13.2

Query block: COc1ccc(C(=O)Nc2ccc(-c3ccc4c(c3)NC(=O)/C4=C\c3ccc[nH]3)cc2)cc1 ?
Result block: -31.9

Query block: Cc1ccc(-c2ccc(SCC(=O)Nc3ccc(Cl)c(C(F)(F)F)c3)nn2)cc1 ?
Result block: 15.9

Query block: CSc1nc(-c2cccc(C)c2)c2cc(-c3ccccc3)n(C)c2n1 ?
Result block: 5.57

Query block: COc1ccc(/C=N/N=C(\C)c2ccc3c(c2)Nc2ccccc2S3)cc1O ?
Result block: 11.9

Query block: O=C(Nc1nc2ccc([N+](=O)[O-])cc2s1)Nc1ccccc1I ?
Result block: -13.9

Query block: O=c1c2ccccc2nc(COc2ccccc2)n1/N=C/c1ccc(N2CCOCC2)cc1 ?
Result block: 77.6

Query block: O=C(Cc1ccc2c(c1)CN(C1CCC(=O)NC1=O)C2=O)NCCc1ccccc1 (centres undefined) ?
Result block: 18.9

Query block: O=C1NC(=NC2CCCCCC2)N/C1=C\c1ccc2ncoc2c1 ?
Result block: 13

Query block: COc1cccc(-c2nn(-c3ccccc3)cc2-c2ccnc(NCCCNC(=O)Nc3ccc(F)cc3)c2)c1 ?
Result block: -15.5

Query block: O=C(Nc1cccc([N+](=O)[O-])c1)Nc1cccc([N+](=O)[O-])c1 ?
Result block: 72.5

Query block: CCN1CCN(c2ccc(NC(=O)Nc3ccc4c(c3F)CCN4c3ccnc(C(=O)NC)c3)cc2C(F)(F)F)CC1 ?
Result block: -77.9

Query block: COc1ccc([C@H]2C(C(=O)c3ccc(Cl)cc3)C3(N[C@@H]2c2ccccc2)C(=O)Nc2ccc(Br)cc23)cc1 (some centres undefined) ?
Result block: -7.25
